- measurementTarget: human Farnesoid X receptor ligand-binding domain/Gal4 DNA binding domain chimera (Homo sapiens (Human))
- Sequence (Q96RI1 262-486, change not shown): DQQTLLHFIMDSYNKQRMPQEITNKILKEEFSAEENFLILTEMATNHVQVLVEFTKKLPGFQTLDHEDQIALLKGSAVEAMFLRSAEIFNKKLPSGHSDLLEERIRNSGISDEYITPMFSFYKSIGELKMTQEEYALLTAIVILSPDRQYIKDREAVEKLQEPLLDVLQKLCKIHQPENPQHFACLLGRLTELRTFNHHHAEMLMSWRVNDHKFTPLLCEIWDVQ
- testSummary: Cell-based FXR beta-lactamase reporter assay (FXR-UAS-bla HEK 293T cells)
- runConditions: cellular FXR beta-lactamase reporter assay, extent of activation relative to GW4064
% Efficacy values by entry
Number in %, nothing else.

Consider the reported % Efficacy for these compounds:
> print(dat)
                               smilesrecord  quantityname  units  endpointresult
1  CCCCCS(=O)(=O)NC(=O)c1ccc(N2[C@@H]3CC[C@H]2C[C@@H](OC(=O)c2c(-c4c(Cl)cccc4Cl)noc2C2CC2)C3)cc1    % Efficacy      %             110
2  O=C(O)c1cc(F)c2nc(N3[C@@H]4CC[C@H]3C[C@@H](OC(=O)c3c(-c5c(Cl)cccc5Cl)noc3C3(F)CC3)C4)sc2c1    % Efficacy      %             108

I'd like to know its % Efficacy. The compound in question is Cc1onc(-c2c(Cl)cccc2Cl)c1C(=O)O[C@H]1C[C@H]2CC[C@@H](C1)N2c1nc2c(F)cc(C(=O)O)cc2s1
100

----------
Emax values by entry
- measurementTarget: human Farnesoid X receptor ligand-binding domain/Gal4 DNA binding domain chimera (Homo sapiens (Human))
- testSummary: Cell-based FXR beta-lactamase reporter assay (FXR-UAS-bla HEK 293T cells)
- runConditions: HEK-293T; read-out: % Efficacy
Number in %, nothing else.

> print(dat)
                               smilesrecord  endpointresult
1  CCCS(=O)(=O)NC(=O)c1cc(F)c2nc(N3[C@@H]4CC[C@H]3C[C@@H](OC(=O)c3c(-c5c(Cl)cccc5Cl)noc3C3(F)CC3)C4)sc2c1             107
2  CS(=O)(=O)NC(=O)c1ccc(N2[C@@H]3CC[C@H]2C[C@@H](OC(=O)c2c(-c4c(Cl)cccc4Cl)noc2C2CC2)C3)cc1             117

I'd like to know its Emax. The molecule in question is O=C(O)c1cc(F)cc(S(=O)(=O)N2[C@@H]3CC[C@H]2C[C@@H](OC(=O)c2c(-c4c(Cl)cccc4Cl)noc2C2CC2)C3)c1
78

I'd like to know its Emax. The molecule in question is CS(=O)(=O)NC(=O)c1ccc(N2[C@@H]3CC[C@H]2C[C@@H](OC(=O)c2c(-c4c(Cl)cccc4Cl)noc2C2CC2)C3)c(Cl)c1
109

I'd like to know its Emax. The molecule in question is Cn1c(N2[C@@H]3CC[C@H]2C[C@@H](OC(=O)Cc2c(-c4c(Cl)cccc4Cl)noc2C2CC2)C3)nc2c(F)cc(C(=O)O)cc21
72

I'd like to know its Emax. The molecule in question is O=C(O)CNC(=O)c1cc(F)c2nc(N3[C@@H]4CC[C@H]3C[C@@H](OC(=O)c3c(-c5c(Cl)cccc5Cl)noc3C3CC3)C4)sc2c1
109

----------
- measurementTarget: ligand binding domain of human FXR (Homo sapiens (Human), UniProt Q96RI1)
- Sequence (Q96RI1 262-486): as the sequence (Q96RI1 262-486, change not shown) above
- testSummary: FXR ligand binding assay (LanthaScreen FRET)
- runConditions: FXR ligand binding assay, extent of activation relative to GW4064
% Efficacy values by entry
Number in %, nothing else.

Consider the reported % Efficacy for these compounds:
> print(dat)
                               smilesrecord  endpointresult
1  CCCS(=O)(=O)NC(=O)c1ccc(N2[C@@H]3CC[C@H]2C[C@@H](OC(=O)c2c(-c4c(Cl)cccc4Cl)noc2C2CC2)C3)cc1             130
2  O=C(O)c1cc(F)c2nc(N3[C@@H]4CC[C@H]3C[C@@H](OC(=O)c3c(-c5ccccc5)noc3C3CC3)C4)sc2c1              40
3  CC(C)S(=O)(=O)NC(=O)c1ccc(N2[C@@H]3CC[C@H]2C[C@@H](OC(=O)c2c(-c4c(Cl)cccc4Cl)noc2C2CC2)C3)cc1             168
4  Cc1onc(-c2c(Cl)cccc2Cl)c1C(=O)O[C@H]1C[C@H]2CC[C@@H](C1)N2c1nc2c(F)cc(C(=O)O)cc2s1              37
5  O=C(O)c1cc(F)c2nc(N3[C@@H]4CC[C@H]3C[C@@H](OC(=O)c3c(-c5c(Cl)cccc5OC(F)F)noc3C3CC3)C4)sc2c1              71

Now consider the entry below.
I'd like to know its % Efficacy. The compound in question is O=C(O)c1cc(F)c2nc(N3[C@@H]4CC[C@H]3C[C@@H](OC(=O)c3c(-c5ccccc5OC(F)(F)F)noc3C3CC3)C4)sc2c1
147

----------
% Efficacy values by entry
- measurementTarget: ligand binding domain of human FXR (Homo sapiens (Human), UniProt Q96RI1)
- testSummary: FXR ligand binding assay (LanthaScreen FRET);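 also: TR-FRET coactivator recruitment: ligand-induced binding of fluorescein-labelled SRC2-2 peptide to GST-tagged FXR LBD detected via Tb anti-GST antibody, serial compound dilutions, 3-parameter logistic fit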
- runConditions: FXR ligand binding assay, extent of activation relative to GW4064
Number in %, nothing else.

Consider the reported % Efficacy for these compounds:
> print(dat)
                               smilesrecord                         measurementtarget  quantityname  units  endpointresult
1  O=C(NS(=O)(=O)CC1CC1)c1ccc(N2[C@@H]3CC[C@H]2C[C@H](OC(=O)c2c(-c4c(Cl)cccc4Cl)noc2C2CC2)C3)cc1  ligand binding domain of human FXR (Homo sapiens (Human), UniProt Q96RI1)    % Efficacy      %             128
2  O=C(NS(=O)(=O)C1CC1)c1ccc(N2[C@@H]3CC[C@H]2C[C@H](OC(=O)c2c(-c4c(Cl)cccc4Cl)noc2C2CC2)C3)cc1  ligand binding domain of human FXR (Homo sapiens (Human), UniProt Q96RI1)    % Efficacy      %             124
3  O=C(O)c1cc(F)c2nc(N3[C@@H]4CC[C@H]3C[C@@H](OC(=O)c3c(-c5c(Cl)cccc5Cl)noc3C3(F)CC3)C4)sc2c1  ligand binding domain of human FXR (Homo sapiens (Human), UniProt Q96RI1)    % Efficacy      %             107

Param readout = % Efficacy; param system = ligand binding domain of human FXR (Homo sapiens (Human), UniProt Q96RI1); param query = O=C(O)c1cc(F)c2nc(N3[C@@H]4CC[C@H]3C[C@@H](OC(=O)c3c(-c5c(Cl)cccc5Cl)noc3C3CCC3)C4)sc2c1 ; response: value
64

Param readout = % Efficacy; param system = ligand binding domain of human FXR (Homo sapiens (Human), UniProt Q96RI1); param query = O=C(O)c1cc(F)c2nc(N3[C@@H]4CC[C@H]3C[C@@H](OC(=O)c3c(C5CCC6(CC5)CC6)noc3C3CC3)C4)sc2c1 ; response: value
55

Param readout = % Efficacy; param system = ligand binding domain of human FXR (Homo sapiens (Human), UniProt Q96RI1); param query = COC12CCC(c3noc(C4CC4)c3C(=O)O[C@@H]3C[C@H]4CC[C@@H](C3)N4c3nc4c(OC(F)(F)F)cc(C(=O)O)cc4s3)(CC1)CC2 ; response: value
22

Param readout = % Efficacy; param system = ligand binding domain of human FXR (Homo sapiens (Human), UniProt Q96RI1); param query = O=C(O)c1cc(F)c2nc(N3[C@@H]4CC[C@H]3C[C@@H](OC(=O)c3c(-c5c(F)cccc5F)noc3C3CC3)C4)sc2c1 ; response: value
47

Param readout = % Efficacy; param system = ligand binding domain of human FXR (Homo sapiens (Human), UniProt Q96RI1); param query = O=C(Cc1c(-c2c(Cl)cccc2Cl)noc1C1CC1)O[C@H]1C[C@H]2CC[C@@H](C1)N2c1nc2c(F)cc(C(=O)O)cc2s1 ; response: value
34

----------
- measurementTarget: human Farnesoid X receptor ligand-binding domain/Gal4 DNA binding domain chimera (Homo sapiens (Human))
- testSummary: Cell-based FXR beta-lactamase reporter assay (FXR-UAS-bla HEK 293T cells)
- runConditions: HEK-293T; read-out: % Efficacy
Emax values by entry
Number in %, nothing else.

Consider the reported Emax for these compounds:
> print(dat)
                                   compound  units  endpointresult
1  Cc1cc(C(=O)O)cc2sc(N3[C@@H]4CC[C@H]3C[C@@H](OC(=O)c3c(-c5c(Cl)cccc5Cl)noc3C3(F)CC3)C4)nc12 [Compound I-59]      %             105
2  Cn1cc(C(=O)O)c2ccc(N3[C@@H]4CC[C@H]3C[C@@H](OC(=O)c3c(-c5c(Cl)cccc5Cl)noc3C3CC3)C4)cc21 [Compound I-28]      %             117
3  Cc1cc(C(=O)O)cc2sc(N3[C@@H]4CC[C@H]3C[C@@H](OC(=O)c3c(-c5ccccc5C(F)(F)F)noc3C3CC3)C4)nc12 [Compound I-61]      %             102
4  O=C(NCCS(=O)(=O)O)c1cc(F)c2nc(N3[C@@H]4CC[C@H]3C[C@@H](OC(=O)c3c(-c5c(Cl)cccc5Cl)noc3C3CC3)C4)sc2c1 [Compound I-5]      %              72
5  O=C(O)c1cc(F)cc(N2[C@@H]3CC[C@H]2C[C@@H](OC(=O)c2c(-c4c(Cl)cccc4Cl)noc2C2CC2)C3)c1 [Compound I-42]      %              85
6  O=C(O)c1cc(OC(F)(F)F)c2nc(N3[C@@H]4CC[C@H]3C[C@@H](OC(=O)c3c(C56CCC(CC5)CC6)noc3C3CC3)C4)sc2c1 [Compound I-57]      %              33

Now consider the entry below.
I'd like to know its Emax. The compound in question is CCc1cc(C(=O)O)cc2sc(N3[C@@H]4CC[C@H]3C[C@@H](OC(=O)c3c(-c5c(Cl)cccc5Cl)noc3C3CC3)C4)nc12 [Compound I-60]
104
